Source of measurements: patent US12552834B2

target: ENAH EVH1 domain (Homo sapiens, UniProt Q8N8S7); construct: places a 6×-His and TEV cleavage tag N-terminal to the EVH1 domain; 6×-His + TEV cleavage site (N, cleaved yes); made in house; host or cells: E. coli Rosetta2(DE3); assay: Biolayer interferometry (BLI), SUMO-peptide fusions binding monomeric ENAH EVH1 domain WT; settings: BLI, ENAH EVH1 domain
Sequence (Q8N8S7 with tags, fused parts or gaps): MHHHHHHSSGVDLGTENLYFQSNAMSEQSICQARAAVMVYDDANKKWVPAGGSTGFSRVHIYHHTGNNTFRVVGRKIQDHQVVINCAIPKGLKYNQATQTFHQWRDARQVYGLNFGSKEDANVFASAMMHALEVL
MEASURED_ATTRIBUTE: Kd

Ask: Any idea what Kd came out for GSTQDVQSSPHNQFTFRPLPPPPPPPHACTCARKPP [TENM1] on ENAH EVH1 domain (Homo sapiens, UniProt Q8N8S7)?
Reply: > 60 µM
